Exercise: for every item that follows, state its recorded IC50.
System tested: UniProtKB P26663
Test protocol: Inhibition of NS5B RNA dependent RNA polymerase activity
Format: biochemical
Protocol conditions: Table 1; HCV NS5B polymerase
Method: A suitable assay is described in the examples. Inhibition of NS5B RNA Dependent RNA Polymerase Activity The compounds of the invention were tested for inhibitory activity against the hepatitis C virus RNA dependant polymerase (NS5B), according to protocol described in WO 03/010141

Query: IC50; subject: NS(=O)(=O)c1ccc(CNC(=O)Cn2c(-c3ccoc3)c(C3CCCCC3)c3ccc(C(=O)O)cc32)cc1
200 to 1000 nM

Query: IC50; subject: CC1CN(C(=O)Cn2c(-c3ccoc3)c(C3CCCCC3)c3ccc(C(=O)O)cc32)CC(C)O1 (centres unmarked)
< 200 nM

Query: IC50; subject: O=C(O)/C=C/c1ccc(NC(=O)[C@@]2(NC(=O)Cn3c(-c4ccoc4)c(C4CCCCC4)c4ccc(C(=O)O)cc43)CCNC2)cc1
< 200 nM

Query: IC50; subject: CC(=O)NNC(=O)Cn1c(-c2ccoc2)c(C2CCCCC2)c2ccc(C(=O)O)cc21
< 200 nM

Query: IC50; subject: CS(=O)(=O)NC(=O)Cn1c(-c2ccoc2)c(C2CCCCC2)c2ccc(C(=O)O)cc21
200 to 1000 nM

Query: IC50; subject: CCCN(C)C(=O)Cn1c(-c2ccoc2)c(C2CCCCC2)c2ccc(C(=O)O)cc21
< 200 nM

Query: IC50; subject: O=C(O)c1ccc2c(C3CCCCC3)c(-c3ccoc3)n(CC(=O)N3CCC(C(=O)O)CC3)c2c1
< 200 nM

Query: IC50; subject: CN(C)C(=O)Cn1c(-c2ccoc2)c(C2CCCC2)c2ccc(C(=O)O)cc21
< 200 nM

----------
System tested: hepatitis C virus RNA dependant polymerase (NS5B) (Hepatitis C virus genotype 1b, UniProt P26663)
Sequence (P26663 2420-3010): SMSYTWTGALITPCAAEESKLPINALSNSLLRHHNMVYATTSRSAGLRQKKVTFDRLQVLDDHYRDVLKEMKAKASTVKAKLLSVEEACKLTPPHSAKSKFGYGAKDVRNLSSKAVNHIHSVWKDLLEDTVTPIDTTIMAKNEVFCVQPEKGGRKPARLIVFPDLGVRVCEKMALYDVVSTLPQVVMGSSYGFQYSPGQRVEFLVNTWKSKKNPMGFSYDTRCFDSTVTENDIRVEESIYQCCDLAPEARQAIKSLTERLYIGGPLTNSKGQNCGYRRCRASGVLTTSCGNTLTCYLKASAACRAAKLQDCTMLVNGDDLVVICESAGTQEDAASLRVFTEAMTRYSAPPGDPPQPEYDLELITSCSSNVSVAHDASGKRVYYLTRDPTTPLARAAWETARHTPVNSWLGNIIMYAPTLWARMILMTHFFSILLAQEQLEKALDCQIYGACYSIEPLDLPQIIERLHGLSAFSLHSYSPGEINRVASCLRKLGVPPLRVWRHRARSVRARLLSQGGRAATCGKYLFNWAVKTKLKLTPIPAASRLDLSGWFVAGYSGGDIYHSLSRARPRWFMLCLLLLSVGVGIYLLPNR
Test protocol: Inhibition of NS5B RNA dependent RNA polymerase activity
Assay type: biochemical
Protocol conditions: Table 2; HCV NS5B polymerase
Procedure: A suitable assay is described in the examples. Inhibition of NS5B RNA Dependent RNA Polymerase Activity The compounds of the invention were tested for inhibitory activity against the hepatitis C virus RNA dependant polymerase (NS5B), according to protocol described in WO 03/010141
Readout kind: IC50

Query: IC50; subject: O=C(NS(=O)(=O)C1CC1)c1ccc2c(C3CCCCC3)c(-c3ccoc3)n(CC(=O)N3CCOCC3)c2c1 [Example 2026]
< 200 nM

Query: IC50; subject: O=C(NS(=O)(=O)c1ccc(F)cc1)c1ccc2c(C3CCCCC3)c(-c3ccoc3)n(CC(=O)N3CCOCC3)c2c1 [Example 2015]
< 200 nM

Query: IC50; subject: Cc1c(S(=O)(=O)NC(=O)c2ccc3c(C4CCCCC4)c(-c4ccoc4)n(CC(=O)N4CCOCC4)c3c2)sc2ccc(F)cc12 [Example 2020]
< 200 nM

Query: IC50; subject: O=C(NS(=O)(=O)c1ccc(Cl)cc1)c1ccc2c(C3CCCCC3)c(-c3ccoc3)n(CC(=O)N3CCOCC3)c2c1 [Example 2019]
< 200 nM

Query: IC50; subject: O=C(NS(=O)(=O)c1ccc([N+](=O)[O-])cc1)c1ccc2c(C3CCCCC3)c(-c3ccoc3)n(CC(=O)N3CCOCC3)c2c1 [Example 2018]
< 200 nM

Query: IC50; subject: Cc1noc(C)c1S(=O)(=O)NC(=O)c1ccc2c(C3CCCCC3)c(-c3ccoc3)n(CC(=O)N3CCOCC3)c2c1 [Example 2034]
< 200 nM
